The entries below come with measured log10 of IC50 values attached.
Assay: Inhibitory activity against lipid peroxidation of egg-phosphatidylcholine (PC) liposome caused by water-soluble radical initiator [2,2'-azobis(2-amidinopropane) dihydrochloride] (AAPH)
Type: functional
Note: values are log10 of IC50 expressed in µM.

Here is how some compounds turned out for log10 of IC50.
- compound: "CCCCCCCCSCc1c(O)c(CSCCCCCCCC)c2c(c1O)[C@H](SCCCCCCCC)[C@@H](OC(=O)c1cc(O)c(O)c(O)c1)[C@@H](c1cc(O)c(O)c(O)c1)O2"
  log10 of IC50: 2.13
- compound: "CCCCCCCCOC(=O)c1cc(O)c(O)c(O)c1 [OCTYL_GALLATE]"
  log10 of IC50: 1.27
- compound: "CCCCCCCCSCc1c(O)c(CSCCCCCCCC)c2c(c1O)C[C@@H](OC(=O)c1cc(O)c(O)c(O)c1)[C@@H](c1cc(O)c(O)c(O)c1)O2"
  log10 of IC50: 0.90

Continue with the next compound.
Req: log10 of IC50 for O=C(O[C@@H]1Cc2c(O)c(CSCc3ccccc3)c(O)c(CSCc3ccccc3)c2O[C@@H]1c1cc(O)c(O)c(O)c1)c1cc(O)c(O)c(O)c1 ?
Resp: 0.98

----------
Assay: Inhibitory activity against lipid peroxidation of egg-phosphatidylcholine (PC) liposome caused by water-soluble radical initiator [2,2'-azobis(2-amidinopropane) dihydrochloride] (AAPH)
Format: functional
measured_property: IC50 (µM)
Field: numeric (µM). Do not append units.

Please review the entries below; each comes with its answer.
- molecule: "C=CCSCc1c(O)c(CSCC=C)c2c(c1O)C[C@@H](OC(=O)c1cc(O)c(O)c(O)c1)[C@@H](c1cc(O)c(O)c(O)c1)O2"
  IC50 [µM]: 11.6
- molecule: "O=C(O[C@H]1[C@@H](c2cc(O)c(O)c(O)c2)Oc2cc(O)cc(O)c2[C@@H]1SCCO)c1cc(O)c(O)c(O)c1"
  IC50 [µM]: 20.5
- molecule: "COC(=O)CSCc1c(O)c(CSCC(=O)OC)c2c(c1O)C[C@@H](OC(=O)c1cc(O)c(O)c(O)c1)[C@@H](c1cc(O)c(O)c(O)c1)O2"
  IC50 [µM]: 12
- molecule: "Cc1c(C)c2c(c(C)c1O)CC[C@@](C)(CCC[C@H](C)CCC[C@H](C)CCCC(C)C)O2"
  IC50 [µM]: 40.3
- molecule: "CCCCCCCCCCCCCCCCCCNC(=O)Oc1c(O)cc(C(=O)O[C@@H]2Cc3c(O)cc(O)cc3O[C@@H]2c2cc(O)c(O)c(O)c2)cc1O"
  IC50 [µM]: 24.6
- molecule: "CCCCCCCCSCc1c(O)c(CSCCCCCCCC)c2c(c1O)[C@H](SCCO)[C@@H](OC(=O)c1cc(O)c(O)c(O)c1)[C@@H](c1cc(O)c(O)c(O)c1)O2"
  IC50 [µM]: 8.8

Req: Name the recorded IC50 for O=C(O[C@@H]1Cc2c(O)cc(O)cc2O[C@@H]1c1cc(O)c(O)c(O)c1)c1cc(O)c(O)c(O)c1 [EPIGALOCATECHIN GALLATE] .
Resp: 20.8
